Consider the following variants; for each one, report its FACS-Seq fitted mean (log10).
B1: library; a variant is named by its letters at N, in order (parent)
chain: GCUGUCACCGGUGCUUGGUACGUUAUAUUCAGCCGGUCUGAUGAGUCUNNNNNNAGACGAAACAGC

Variants of: B1
Experiment: FACS-Seq fitted mean relative fluorescence mCherry/BFP with ligand (log10 relative fluorescence); HEK293T overexpressing SLC46A1; ligand concentration (+) FACS-Seq: 6 mM; higher = higher reporter protein expression
Assay setup: with (6R,S)-folinic acid; ligand present: yes

For the variant "GUGUGU" , report FACS-Seq fitted mean (log10).
0.271

// fetch FACS-Seq fitted mean (log10) given entry "ACUGGG"
0.115

Answer with the recorded FACS-Seq fitted mean (log10) of "UUGAAA" only.
0.286

Entry "GCGAAG" needs its FACS-Seq fitted mean (log10) filled in; supply it.
0.576

Indicate the recorded FACS-Seq fitted mean (log10) value for this variant: "UAAAAC"
0.499

// Input: "UAGGGG" . Output its FACS-Seq fitted mean (log10) only.
0.172

Tell us which FACS-Seq fitted mean (log10) value is on record for "UAGUAU"
0.553

Give recorded FACS-Seq fitted mean (log10). "GAUAGU"
0.563

Please report FACS-Seq fitted mean (log10) for the following variant: "CUGGAU"
0.179

Quick one: give measured FACS-Seq fitted mean (log10) for "CAUUUG"
0.431

Retrieve FACS-Seq fitted mean (log10) measured for "GGGUGC" and print it.
0.461

For "UAGGUG" , write its FACS-Seq fitted mean (log10).
0.559

Input "AUGAUG" , output reported FACS-Seq fitted mean (log10).
0.544

Give the reported FACS-Seq fitted mean (log10) for this variant. "GCUUCA"
0.641

Specify measured FACS-Seq fitted mean (log10) for "ACUUAC" .
0.536

Annotate the variant "UGACUG" with its measured FACS-Seq fitted mean (log10).
0.368

Give a short answer stating reported FACS-Seq fitted mean (log10) for "AAUCAG" .
0.228

Return value of FACS-Seq fitted mean (log10) for input "GAAUCA" , no commentary.
0.409

Note FACS-Seq fitted mean (log10) for the variant shown: "UAUGAG"
0.709

Query FACS-Seq fitted mean (log10) for "CAUCUC"
0.619

Recall and state the measured FACS-Seq fitted mean (log10) for "AGGCUA" .
0.407

Input "GGGCGG" , output reported FACS-Seq fitted mean (log10).
0.485
